What z-score was measured for each of the following?
test: modulators of S6 phosphorylation in cells, primary screen, cell-based, A549, cytoblot, luminescence, serum-stimulated (AID 1158); conditions: A549 phospho-S6 cytoblot, 5 h, higher = more signal;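 also: serum-stimulated A549 lung adenocarcinoma cells; signal is phosphorylated S6 detected by cytoblot immunostaining with HRP secondary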
Numbers only.

Please review the following examples before continuing.
| COMPOUND | z-score |
| --- | --- |
| CC(C)C(CO)N1C(=O)[C@@H]2[C@H]3C(=O)OCC=C[C@H]3OC23C=CCN(C(C)C)C(=O)[C@@H]13 (some centres not stated) | -0.1 |
| C=CCC(OC(C)=O)[C@@H]1[C@@H](N(Cc2ccc(-c3cccc(C(F)(F)F)c3)o2)C(=O)c2ccc(-c3ccccc3)cc2)c2cc(OCCCO)ccc2N1C(=O)c1ccc(-c2ccccc2)cc1 (some centres not stated) | 0.0635 |
| C=CC[C@@]1(C(=O)N(C)C)N=C(c2ccc(OCCCO)cc2)O[C@@H]1c1ccccc1N=[N+]=[N-] | -0.195 |

Each of the following entries comes with a recorded value; kindly state z-score for each.
1. [N-]=[N+]=NCc1ccccc1C[C@@]1(C(=O)NCC(O)CO)N=C(c2ccc(OCCCO)cc2)O[C@@H]1c1ccccc1N=[N+]=[N-] (some centres not stated)
2. COCCOC(=O)N1C(=O)[C@@]2(c3ccccc31)[C@H](c1ccccc1OCCO)N1[C@H](c3ccccc3)[C@H](c3ccccc3)OC(=O)[C@H]1[C@@H]2C(=O)Nc1nc2ccccc2s1
3. CCCCCCC#C[Si](O[C@H](c1ccccc1)c1cn([C@H](CO)Cc2ccccc2)nn1)(C(C)C)C(C)C
4. COc1ccc(CCN2C(=O)[C@@]3(c4ccc([N+](=O)[O-])cc4)CC(=O)N(C4CCCCC4)[C@@H]3c3ccc(CO)cc32)cc1

1. 0.345
2. 0.59
3. 0.447
4. -0.423

----------
What z-score was measured for each of the following?
assay: A549 lung cancer cell viability effects, profiling panel, resazurin fluorescence, 24 h, PK04 Diversity Set (AID 1171); details: higher = more signal, called active from +8 up or from −8 down; also: test concentration not given here
Give bare numbers.

Please review the following examples before continuing.
| COMPOUND | MEASUREMENT KIND | EXPERIMENTAL RESULT |
| --- | --- | --- |
| CN(C)CCCCCCNC(=O)[C@@H]1C[C@@H]2C(=O)N[C@@H](CCCCN)C(=O)N2[C@@H]1c1cccc(OCCO)c1 | z-score | 0.159 |
| CC(C)(C)OC(=O)CC[C@@]1(C(=O)NCCN2CCOCC2)N=C(c2ccc(OCCCO)cc2)O[C@@H]1c1ccccc1N=[N+]=[N-] | z-score | -0.492 |
| NCCCCCNC(=O)[C@@H]1C[C@@H]2C(=O)N[C@@H](Cc3ccccc3)C(=O)N2[C@@H]1c1cccc(OCCO)c1 | z-score | -0.403 |
| CCCCN1CC=CC23O[C@@H]4C=CCOC(=O)[C@@H]4[C@H]2C(=O)N(CCCCCO)[C@@H]3C1=O (stereo not given in full) | z-score | -0.508 |

Each of the following entries comes with a recorded value; kindly state z-score for each.
1. C#CCN(CC=C(C)C)[C@H](CO)c1ccccc1
2. C=CCN1C(=O)[C@]2(O[C@H](CCO)[C@@H]([Si](C)(C)c3ccc(OC)cc3)[C@@H]2C)c2cc(N3C(=O)c4cccc5cccc3c45)ccc21
3. COCCOC(=O)N1C(=O)[C@@]2(c3cc(C#CC4=CCCCC4)ccc31)[C@H](C(=O)N1CCc3cc(OC)c(OC)cc3C1)[C@H]1C(=O)O[C@H](c3ccccc3)[C@H](c3ccccc3)N1[C@@H]2c1ccc(OCCO)cc1
4. CN1C(=O)C2C=CC(C(O)c3ccc(I)cc3)N(N3CCCCC3)C2C1=O (stereo not given)
5. CC(C)C(CO)N1C(=O)[C@@H]2[C@H]3C(=O)OCC=C[C@H]3OC23C=CCN(C(C)C)C(=O)[C@@H]13 (stereo not given in full)
6. CN1C(=O)C2C=CC(C(O)C3CC=CCC3)N(NC(=O)OC(C)(C)C)C2C1=O (stereo not given)

-0.665
-5.26
0.531
-0.799
0.711
-0.111

Each of the following entries comes with a recorded value; kindly state z-score for each.
1. COc1ccc([C@H]2OC[C@@H]3CC4(CC=CC4)C(=O)N32)cc1
2. COCCOC(=O)N1C(=O)[C@@]2(c3cc(C#CCCO)ccc31)[C@H](C(=O)N1CCN(c3ncccn3)CC1)[C@H]1C(=O)O[C@H](c3ccccc3)[C@H](c3ccccc3)N1[C@@H]2c1ccccc1OCCO
3. C[N+](C)(C)CCCCNC(=O)[C@H]1C[C@H]2C(=O)N[C@@H](Cc3ccccc3)C(=O)N2[C@H]1c1ccc(O)cc1

-0.312
1.79
-0.486

Each of the following entries comes with a recorded value; kindly state z-score for each.
1. O=C1OCC=C[C@H]2OC34C=CCN(CCN5CCOCC5)C(=O)[C@H]3N(CCCO)C(=O)[C@@H]4[C@@H]12 (stereo not given in full)
2. C#CCN(Cc1ccccc1Br)C(/C=C/c1ccccc1)CO (stereo not given)

1: -1.38; 2: -0.411

----------
tested on: Noggin (protein binding on small-molecule microarray); test: Noggin binders on small-molecule microarray, primary screen, biochemical, 635/667 nm fluorescence (AID 1095); details: 635 nm fluorescence, higher = more signal;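 also: score merges 667 nm feature fluorescence with signal to noise over triplicate slides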
What composite z-score was measured for each of the following?
One number for each entry.

Each of the following entries comes with a recorded value; kindly state composite z-score for each.
1. CCCCCN1CC=CC23O[C@@H]4/C=C\CCCOC(=O)C4[C@H]2C(=O)N(C(CO)C(C)C)[C@@H]3C1=O (some centres undefined)
2. COc1ccc(COC2OC[C@]3(C)[C@H]4C5=C(CN3C(=O)OC(C)(C)C)[C@H](C)C(CO)C(CO)C5CC[C@@H]24)cc1 (some centres undefined)
3. O=C1NCC(=O)N2[C@@H]1C[C@@H](C(=O)O)[C@H]2c1cccc(OCCO)c1
4. CC1CC/C=C\[C@H]2OC34C=CCN(c5ccc(Cl)cc5)C(=O)[C@H]3N(CCO)C(=O)[C@]4(C)C2C(=O)O1 (some centres undefined)

0.0296
0.277
2.31
-0.504

----------
target: Streptavidin (Streptomyces avidinii) (UniProt P22629); assay: streptavidin binders on small-molecule microarray, primary screen, artefact control for SMM compound annotation, biophysical, 635/667 nm fluorescence (AID 1147); conditions: streptavidin binding, higher = more signal;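 also: signal reflects streptavidin binding to arrayed compounds as a control protein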
Sequence (P22629 whole entry, looked up): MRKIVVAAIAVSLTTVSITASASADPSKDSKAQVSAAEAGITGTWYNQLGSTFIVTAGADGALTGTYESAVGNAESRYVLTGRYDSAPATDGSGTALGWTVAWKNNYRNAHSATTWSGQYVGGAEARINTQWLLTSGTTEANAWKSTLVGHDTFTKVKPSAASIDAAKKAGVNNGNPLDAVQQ
MEASUREMENT KIND: composite z-score
Answers are plain numbers.

Please review the following examples before continuing.
| COMPOUND | composite z-score |
| --- | --- |
| [N-]=[N+]=NCc1ccccc1C[C@]1(C(=O)O)N=C(c2ccc(OCCCO)cc2)O[C@H]1c1ccccc1N=[N+]=[N-] | 0.954 |
| C=CCNC(=O)[C@H]1[C@@H]2C(=O)O[C@@H](c3ccccc3)[C@@H](c3ccccc3)N2[C@@H](c2ccc(OCCO)cc2)[C@]12C(=O)N(C(=O)OCCOC)c1ccccc12 | 0.614 |
| CCOC(=O)C[C@H]1[C@H](OC(=O)c2ccc(C(=O)c3ccccc3)cc2)[C@@H](NC(=O)c2ccc(-c3ccccc3)cc2)c2cc(OCCCO)ccc2N1C(=O)c1ccccc1 | 1.11 |

Each of the following entries comes with a recorded value; kindly state composite z-score for each.
1. O=C1NC(=O)C2C1C=CC(C(O)c1ccccc1)N2Nc1ccc(Cl)cc1Cl (centres undefined)
2. O=C1[C@H]2C=C(Br)[C@H](C[C@@H]2OCCCCO)[C@@]12CO2
3. CC(C)(C)OC(=O)CC[C@]1(C(=O)O)N=C(c2ccc(OCCCO)cc2)O[C@H]1c1ccccc1N=[N+]=[N-]
4. C=CCOC(=O)[C@@H]1[C@H]2C(=O)O[C@H](c3ccccc3)[C@H](c3ccccc3)N2[C@H](c2ccc(OCCOC(=O)[C@@H]3C[C@@H]4C(=O)N[C@@H](Cc5ccccc5)C(=O)N4[C@@H]3c3ccc(O)cc3)cc2)[C@@]12C(=O)Nc1ccc(I)cc12
5. [N-]=[N+]=NCc1ccccc1[C@H]1OC(c2ccc(OCCCO)cc2)=N[C@@]1(Cc1ccccc1)C(=O)NCc1ccccc1
6. COC(=O)C(CC#Cc1ccc2c(c1)[C@]1(C(=O)N2)[C@H](c2ccc(O)cc2)N2[C@H](c3ccccc3)[C@H](c3ccccc3)OC(=O)[C@H]2[C@@H]1C(=O)Nc1nc2ccccc2s1)C(=O)OC
7. COc1cc2c(cc1OC)CN(C(=O)[C@@H]1[C@H]3C(=O)O[C@H](c4ccccc4)[C@H](c4ccccc4)N3[C@H](c3ccc(O)cc3)[C@@]13C(=O)Nc1ccc(C#CC4(O)CCCCCC4)cc13)CC2

[2.01, 0.0247, 1.32, 0.122, 1.15, 0.458, 1.06]

----------
test system: Plasmodium falciparum Sir2 (PF13_0152, Sir2A); assay: pfSir2 binders on small-molecule microarrays, primary screen, biochemical, small-molecule microarray, 635 nm fluorescence (AID 1098); settings: small-molecule microarray binding, fluorescence 635 nm; higher = more signal;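 also: score merges spot fluorescence intensity with its signal-to-noise ratio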
What composite z-score was measured for each of the following?
Give bare numbers.

Please review the following examples before continuing.
| COMPOUND | TESTED ON | composite z-score |
| --- | --- | --- |
| COc1cc(CO)cc(I)c1O[C@H]1C=C(C(=O)NCCO)C[C@@H](N(CCN2CCOCC2)C(=O)C2CCOC2)[C@@H]1O (some centres not stated) | Plasmodium falciparum Sir2 (PF13_0152, Sir2A) | 0.505 |
| O=C1NC(=O)C2C1C=CC(C(O)C(c1ccccc1)c1ccccc1)N2Nc1ccc(Cl)cc1Cl (configuration not stated) | Plasmodium falciparum Sir2 (PF13_0152, Sir2A) | 0.496 |
| C=CCNC(=O)[C@@H]1[C@H]2C(=O)O[C@H](c3ccccc3)[C@H](c3ccccc3)N2[C@H](c2ccccc2OCCO)[C@@]12C(=O)N(C(=O)OCCOC)c1ccc(C#CCNC(N)=O)cc12 | Plasmodium falciparum Sir2 (PF13_0152, Sir2A) | 1.43 |
| O=C1NCC(=O)N2[C@@H]1C[C@@H](C(=O)O)[C@H]2c1cccc(OCCO)c1 | Plasmodium falciparum Sir2 (PF13_0152, Sir2A) | 2.28 |
| CC(=O)N1Cc2ccccc2C[C@@]2(COC(c3ccc(OCCCO)cc3)=N2)C1=O | Plasmodium falciparum Sir2 (PF13_0152, Sir2A) | 1.32 |
| Cc1ccc(S[C@]2(C(=O)NC(C)C)CC(=O)N(Cc3ccccc3Cl)[C@@H]2c2ccc(CO)cc2I)cc1 | Plasmodium falciparum Sir2 (PF13_0152, Sir2A) | 1 |

Below: the item to evaluate.
Fill in composite z-score for record C=CCC(OC(C)=O)[C@@H]1[C@@H](N(Cc2ccc(-c3ccccc3)cc2)C(=O)Cc2ccc(F)cc2)c2cc(OCCCO)ccc2N1C(=O)c1ccc(-c2ccccc2)cc1 (some centres not stated)
0.152
